The following compounds are shown together with reported GI50 values.
- measured target: BaF3 cells expressing the target EGFR mutations (Homo sapiens, UniProt P00533, T790M, cells depend on it, form not given)
- Construct: IC50, BAF3 EGFR DEL T790M PURO POOL; other: BAF3 EGFR DEL T790M PURO POOL cells, MTT; other: BAF3 EGFR DEL T790M PURO POOL cells; MTT
- Sequence (P00533 with tags, fused parts or gaps DEL746-750/T790M, form open): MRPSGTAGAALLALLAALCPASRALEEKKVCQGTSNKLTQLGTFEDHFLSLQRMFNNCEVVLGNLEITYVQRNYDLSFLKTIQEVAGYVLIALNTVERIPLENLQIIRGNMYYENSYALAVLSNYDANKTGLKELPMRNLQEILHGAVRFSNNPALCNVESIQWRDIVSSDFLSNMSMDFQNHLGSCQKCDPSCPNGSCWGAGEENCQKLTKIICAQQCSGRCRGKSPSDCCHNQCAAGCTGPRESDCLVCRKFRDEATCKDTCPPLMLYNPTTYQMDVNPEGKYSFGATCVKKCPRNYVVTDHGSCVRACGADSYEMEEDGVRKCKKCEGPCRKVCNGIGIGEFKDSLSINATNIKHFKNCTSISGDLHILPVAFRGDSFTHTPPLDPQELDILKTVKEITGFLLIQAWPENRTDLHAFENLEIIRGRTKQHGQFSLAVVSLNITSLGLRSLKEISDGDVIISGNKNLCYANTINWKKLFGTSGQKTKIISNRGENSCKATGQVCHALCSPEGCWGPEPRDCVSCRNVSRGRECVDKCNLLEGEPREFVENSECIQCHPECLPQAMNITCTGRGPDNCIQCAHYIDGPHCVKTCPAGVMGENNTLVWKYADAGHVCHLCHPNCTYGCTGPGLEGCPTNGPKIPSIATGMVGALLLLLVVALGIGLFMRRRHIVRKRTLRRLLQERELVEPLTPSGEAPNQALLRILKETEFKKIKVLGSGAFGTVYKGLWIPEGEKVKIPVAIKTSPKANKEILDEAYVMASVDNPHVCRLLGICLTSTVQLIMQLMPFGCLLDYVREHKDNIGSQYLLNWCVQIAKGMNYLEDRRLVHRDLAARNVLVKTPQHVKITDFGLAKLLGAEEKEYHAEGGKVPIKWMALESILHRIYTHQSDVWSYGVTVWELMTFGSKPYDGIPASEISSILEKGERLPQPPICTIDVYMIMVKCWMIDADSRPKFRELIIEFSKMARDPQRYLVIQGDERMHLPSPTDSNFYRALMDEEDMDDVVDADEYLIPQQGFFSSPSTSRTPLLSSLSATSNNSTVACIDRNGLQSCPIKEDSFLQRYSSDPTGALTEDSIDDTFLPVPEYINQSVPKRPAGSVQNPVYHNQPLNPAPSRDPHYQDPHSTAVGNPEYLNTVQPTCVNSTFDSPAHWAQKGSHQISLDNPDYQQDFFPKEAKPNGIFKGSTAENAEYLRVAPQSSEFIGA
- protocol description: Antiproliferative activity (MTT) against BaF3 cells expressing the target EGFR mutations
- Format: cell-based
- stated conditions: BAF3 EGFR DEL T790M PURO POOL cells, read-out: IC50, BAF3 EGFR DEL T790M PURO POOL

These solved cases illustrate the format of a correct answer.
>  <compound>
C=CC(=O)Nc1cc(Nc2ncc(Cl)c(Nc3ccccc3P(C)(C)=O)n2)c(C)cc1OC(COC)CN(C)C (stereo not shown) [Example 143]

>  <GI50>
< 50 nM

$$$$
>  <compound>
C=CC(=O)Nc1cc(Nc2ncc(Cl)c(Nc3ccccc3P(C)(C)=O)n2)c(C)cc1OC(COC)CN(C)C (stereo not shown) [Example 144]

>  <GI50>
< 50 nM

$$$$
>  <compound>
COc1cc(F)c(NC(=O)C#CC(C)(C)N2CCCC2)cc1Nc1ncc(Cl)c(Nc2ccccc2P(C)(C)=O)n1

>  <GI50>
< 50 nM

$$$$
>  <compound>
C=CC(=O)Nc1cc(Nc2ncc(Cl)c(Nc3ccccc3P(C)(C)=O)n2)c(OC)cc1C#CCCN(C)C

>  <GI50>
< 50 nM

$$$$
>  <compound>
C=CC(=O)Nc1cc(Nc2ncc(Cl)c(Nc3ccccc3P(C)(C)=O)n2)c(OC)cc1N1CCN(C2CCN(C)CC2)CC1

>  <GI50>
50 to 100 nM

$$$$

Return the recorded GI50 value; entry: COc1ccc(NC(=O)C2=CCCN(C)C2)cc1Nc1ncc(Cl)c(Nc2ccccc2P(C)(C)=O)n1
≥ 250 nM

Return the recorded GI50 value; entry: COCCC#CC(=O)Nc1cc(Nc2ncc(Cl)c(Nc3ccccc3P(C)(C)=O)n2)c(OC)cc1N1CCOCC1
< 50 nM
